System: NCI-H460 lung
PROTOCOL NOTES: NCI-60 one-dose screen, 48 h (100 = growth as untreated, 0 = no growth, -100 = all killed)
STUDY CONDITIONS: 10 µM unless noted
The panel holds about 83,000 compounds, 20% with a hit somewhere; the sample as a whole holds those more often.
OBSERVABLE: growth (%)
Report the figure in % without appending any unit label.

Lookup result for "CCOC(=O)Oc1c(OC)cc(C(=O)c2ccc(OC)c(O)c2OC)cc1OC" ; measured growth: 8.66

* * *

Test system: BT-549 breast
PROTOCOL NOTES: NCI-60 one-dose screen, 48 h
STUDY CONDITIONS: 10 µM unless noted
About 83,000 compounds went through this panel and 20% of them were active in at least one assay; those are over-represented in the sample as a whole. Activity calls are given as the source filed them. How the source made its calls: active means growth percent below 10; inactive means the rest.
Pick from t (active), f (inactive) when you respond.

Look over these answered cases.
| COMPOUND | CLASS ASSIGNMENT |
| --- | --- |
| C/C=C(\C)C(=O)NC1=CC[C@@]2(C)C(=CCC3C2CC[C@@]2(C)C3CC[C@@H]2C(C)N(C)C)C1=O (stereo not given in full) | f |
| O=C1Nc2cc(-c3cccc(O)c3)ccc2/C1=C/c1ccc[nH]1 | t |
| Nc1c(C(=O)Nc2cccc3cnccc23)sc2nc3c(cc12)C(=O)CCC3 | f |
| COc1cc2c(=O)n(CCCN(C)C)c3c4cc5c(cc4ccc3c2cc1OC)OCO5 | f |
| OC(c1ccc(F)c(C(F)(F)F)c1)c1cnccc1NC1CCCCC1 (stereo not given) | f |
| C=C1C(=O)O[C@H]2[C@H]1CC/C(COC(=O)NCc1c[nH]c3ccc(Cl)cc13)=C\CC[C@@]1(C)O[C@@H]21 | t |
| N#Cc1cc(-c2nc3ccccc3s2)c(=O)n(NS(=O)(=O)c2ccccc2)c1N | f |
| CCOC(=O)[C@@H](C)C[C@H](Cc1ccccc1)NC(=O)c1csc([C@@H](C[C@H](C(C)C)N(C)C(=O)[C@@H](NC(=O)[C@H]2C[C@H](O[Si](C)(C)C(C)(C)C)CCN2C)C(C)C)OC(C)=O)n1 | t |

How did this test come out for "COc1ccc(C(=O)c2nc3ccccc3n2CC(=O)c2ccc(F)cc2)cc1" ?
f

Which outcome was entered for the compound "CCOC(=O)c1cc(C(=O)c2ccc(OC)c(OC)c2)n2c1ccc1ccccc12" in this test?
f

Test call, this compound: "Nc1c(C(=O)Nc2cccc3cnccc23)sc2nc3c(cc12)CN(Cc1ccccc1)CC3"
f

* * *

Test system: K-562 leukemia
PROTOCOL NOTES: NCI-60 one-dose screen, 48 h (100 = growth as untreated, 0 = no growth, -100 = all killed)
STUDY CONDITIONS: 10 µM unless noted
This is part of a sample that, as a whole, favours compounds with a hit. Of some 83,000 tested, about 20% had one in any assay.
Label key: criterion met means growth under 80%; criterion not met means growth of 80% or more.

| COMPOUND | TESTED SYSTEM | CLASS ASSIGNMENT |
| --- | --- | --- |
| C=C1C(=O)O[C@H]2[C@H]1CC/C(COC(=O)NCC(C)c1ccc(CC(C)C)cc1)=C\CC[C@@]1(C)O[C@@H]21 (stereo partly specified) | K-562 leukemia | criterion met |
| O=C(O)c1ccc(-c2nn(-c3ccc(C(F)(F)F)cc3)cc2CNc2ccc(Oc3ccccc3)cc2)cc1 | K-562 leukemia | criterion met |
| COc1ccc(CC(C)=C(c2ccc(OCCN3CCCCCC3)cc2)c2ccc(OCCN3CCCCCC3)cc2)cc1 | K-562 leukemia | criterion met |
| CN1C(=O)NC(c2ccc3c(c2)OCO3)C=C1c1ccccc1 (stereo unspecified) | K-562 leukemia | criterion met |
| CCc1c(Cl)nc(N)nc1Nc1ccc(C)c(C)c1 | K-562 leukemia | criterion not met |
| Brc1ccc(Nc2csc(-c3ccccn3)n2)cc1 | K-562 leukemia | criterion not met |
| N#Cc1cc(-c2nc3ccccc3s2)c(=O)n(NS(=O)(=O)c2ccccc2)c1N | K-562 leukemia | criterion not met |
| COc1cc2nc(-c3ccc(C(F)(F)F)cc3)cc(OCCCN3CCOCC3)c2cc1OC | K-562 leukemia | criterion met |
| COc1cc(/C=N/NC(=O)c2cnn3c2NC(c2ccccc2)C3)ccc1OCc1ccccc1 (stereo unspecified) | K-562 leukemia | criterion met |

Now examine the next entry.
Does "COc1cccc(-c2nc3occn3c2-c2ccnc(NCCCNS(=O)(=O)c3ccc(C(F)(F)F)cc3)n2)c1" have growth strictly under 80%?
criterion met
